Target: mu-opioid receptor (MOR) (Rattus norvegicus, UniProt P33535)
Construct: Rat cortices were homogenized using 50 mM Tris, pH 7.4, and centrifuged at 16,500 rpm for 10 min; from tissue; host or cells: rat cortex membranes
Sequence (P33535 whole entry): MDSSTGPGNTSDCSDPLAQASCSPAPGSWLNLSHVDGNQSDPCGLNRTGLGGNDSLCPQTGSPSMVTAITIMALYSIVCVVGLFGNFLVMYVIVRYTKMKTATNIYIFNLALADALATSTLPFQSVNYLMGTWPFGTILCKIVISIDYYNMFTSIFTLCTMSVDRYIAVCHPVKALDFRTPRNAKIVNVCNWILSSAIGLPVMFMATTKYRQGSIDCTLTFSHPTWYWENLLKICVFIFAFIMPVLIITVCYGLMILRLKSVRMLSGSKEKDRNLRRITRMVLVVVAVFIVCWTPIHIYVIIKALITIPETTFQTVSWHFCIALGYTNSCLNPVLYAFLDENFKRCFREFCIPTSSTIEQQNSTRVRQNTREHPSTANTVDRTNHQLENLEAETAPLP
Experiment: MOR radioligand competition binding assay ([3H]-DAMGO)
Settings: Mu screening results, mean of two experiments; read-out: Ki
pKi: −log10 of the molar value.
Entries and their measured pKi follow.
Measured quantity: pKi

{"Smiles repr": "Cc1cc(O)cc(C)c1C[C@H]1CN([C@@H](CC(C)C)CN2C(=N)NC[C@@H]2Cc2ccccc2)C(=N)N1", "Reported measurement": 7.17}
{"Smiles repr": "C[C@H]1CNC(=N)N1C[C@H](Cc1ccccc1)N1C[C@H](Cc2ccc(O)cc2)NC1=N", "Reported measurement": 5.89}
{"Smiles repr": "Cc1cc(O)cc(C)c1C[C@H]1CN([C@@H](Cc2c(C)cc(O)cc2C)CN2C(=N)NC[C@@H]2C)C(=N)N1", "Reported measurement": 8.15}
{"Smiles repr": "CC(C)C[C@H]1CN([C@@H](Cc2ccc(O)cc2)CN2C(=N)NC[C@@H]2Cc2ccc(O)cc2)C(=N)N1", "Reported measurement": 5.64}
{"Smiles repr": "Cc1cc(O)cc(C)c1C[C@H]1CNC(=N)N1C[C@H](Cc1ccccc1)N1C[C@H](Cc2ccccc2)NC1=N", "Reported measurement": 7.16}
{"Smiles repr": "Cc1cc(O)cc(C)c1C[C@H]1CNC(=N)N1C[C@H](Cc1ccccc1)N1C[C@H](Cc2ccc(O)cc2)NC1=N", "Reported measurement": 7.06}
{"Smiles repr": "Cc1cc(O)cc(C)c1C[C@H]1CN([C@@H](Cc2c(C)cc(O)cc2C)CN2C(=N)NC[C@@H]2Cc2c(C)cc(O)cc2C)C(=N)N1", "Reported measurement": 7.14}

* * *

Target: mu-opioid receptor (MOR) (Rattus norvegicus, UniProt P33535)
Construct: Rat cortices were homogenized using 50 mM Tris, pH 7.4, and centrifuged at 16,500 rpm for 10 min; from tissue; host or cells: rat cortex membranes
Assay: MOR radioligand competition binding assay ([3H]-DAMGO)
Settings: Mu screening results, mean of two experiments; read-out: Ki

{"Smiles repr": "N=C1NC[C@H](Cc2ccccc2)N1C[C@H](Cc1ccccc1)N1C[C@H](Cc2ccc(O)cc2)NC1=N", "Ki (nM)": 139}
{"Smiles repr": "Cc1cc(O)cc(C)c1C[C@H]1CNC(=N)N1C[C@H](CC(C)C)N1C[C@H](Cc2ccc(O)cc2)NC1=N", "Ki (nM)": 59}
{"Smiles repr": "CC(C)C[C@H]1CN([C@@H](Cc2ccccc2)CN2C(=N)NC[C@@H]2Cc2ccc(O)cc2)C(=N)N1", "Ki (nM)": 198}
{"Smiles repr": "CC(C)C[C@H]1CN([C@@H](CC(C)C)CN2C(=N)NC[C@@H]2C)C(=N)N1", "Ki (nM)": 9260}
{"Smiles repr": "Cc1cc(O)cc(C)c1C[C@H]1CNC(=N)N1C[C@H](Cc1c(C)cc(O)cc1C)N1C[C@H](Cc2ccccc2)NC1=N", "Ki (nM)": 48}
{"Smiles repr": "Cc1cc(O)cc(C)c1C[C@H]1CNC(=N)N1C[C@H](Cc1c(C)cc(O)cc1C)N1C[C@H](CC(C)C)NC1=N", "Ki (nM)": 81}
{"Smiles repr": "CC(C)C[C@H]1CN([C@@H](CC(C)C)CN2C(=N)NC[C@@H]2Cc2ccccc2)C(=N)N1", "Ki (nM)": 3010}
{"Smiles repr": "Cc1cc(O)cc(C)c1C[C@H]1CN([C@@H](CC(C)C)CN2C(=N)NC[C@@H]2Cc2c(C)cc(O)cc2C)C(=N)N1", "Ki (nM)": 69}
{"Smiles repr": "C[C@H]1CNC(=N)N1C[C@H](Cc1ccc(O)cc1)N1C[C@H](Cc2ccc(O)cc2)NC1=N", "Ki (nM)": 184}
{"Smiles repr": "CC(C)C[C@@H](CN1C(=N)NC[C@@H]1Cc1ccccc1)N1C[C@H](Cc2ccc(O)cc2)NC1=N", "Ki (nM)": 240}
{"Smiles repr": "Cc1cc(O)cc(C)c1C[C@H]1CN([C@@H](Cc2c(C)cc(O)cc2C)CN2C(=N)NC[C@@H]2Cc2ccccc2)C(=N)N1", "Ki (nM)": 83}
{"Smiles repr": "N=C1NC[C@H](Cc2ccccc2)N1C[C@H](Cc1ccc(O)cc1)N1C[C@H](Cc2ccccc2)NC1=N", "Ki (nM)": 798}
{"Smiles repr": "CC(C)C[C@H]1CN([C@@H](Cc2ccccc2)CN2C(=N)NC[C@@H]2C)C(=N)N1", "Ki (nM)": 4510}
{"Smiles repr": "N=C1NC[C@H](Cc2ccc(O)cc2)N1C[C@H](Cc1ccccc1)N1C[C@H](Cc2ccc(O)cc2)NC1=N", "Ki (nM)": 402}
{"Smiles repr": "Cc1cc(O)cc(C)c1C[C@H]1CNC(=N)N1C[C@H](Cc1ccc(O)cc1)N1C[C@H](Cc2ccc(O)cc2)NC1=N", "Ki (nM)": 64}
